target.entity: AKT2 (Homo sapiens, UniProt P31751)
Construct: AKT1, AKT2, and AKT3 proteins in H1975-OR cells; endogenous in cells; host or cells: H1975-OR (osimertinib-resistant H1975)
Sequence (P31751 whole entry): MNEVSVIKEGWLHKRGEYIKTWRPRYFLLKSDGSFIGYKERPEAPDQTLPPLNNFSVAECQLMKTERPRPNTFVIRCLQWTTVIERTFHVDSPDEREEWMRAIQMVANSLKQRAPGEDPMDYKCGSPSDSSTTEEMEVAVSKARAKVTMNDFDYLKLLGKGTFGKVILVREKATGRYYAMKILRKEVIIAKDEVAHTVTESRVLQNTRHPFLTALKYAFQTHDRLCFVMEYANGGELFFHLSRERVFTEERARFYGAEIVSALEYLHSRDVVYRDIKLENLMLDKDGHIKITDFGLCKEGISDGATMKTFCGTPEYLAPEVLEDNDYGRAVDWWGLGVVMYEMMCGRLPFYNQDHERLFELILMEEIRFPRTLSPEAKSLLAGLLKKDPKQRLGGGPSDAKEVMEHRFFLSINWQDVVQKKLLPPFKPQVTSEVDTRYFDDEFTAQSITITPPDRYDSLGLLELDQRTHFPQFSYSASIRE
procedure.text: Western Blot, degradation of AKT2 protein in H1975-OR cells
Assay type: cell-based
assay.conditions: 1000 nM, 24 hours, maximum degradation rate

compound	Dmax at 1 µM / %
COc1cc(N2CCN(CCCCCCCCCCCCNC(=O)CC34CC5CC(CC(C5)C3)C4)CC2)ccc1Nc1ncc2c(C)cc(=O)n([C@H]3CCC[C@@H](NC(=O)C4CC4)C3)c2n1	0
COc1cc(N2CCN(CCCCCCCCCCCCNC(=O)CC34CC5CC(CC(C5)C3)C4)CC2)ccc1Nc1ncc2c(C)cc(=O)n(-c3cccc(N)c3)c2n1	45.9
COc1cc(N2CCN(CCCCCCCCNC(=O)C3CCC(F)(F)CC3)CC2)ccc1Nc1ncc2c(C)cc(=O)n(-c3cccc(NC(=O)C4CC4)c3)c2n1	67.5
C=CC(=O)Nc1cccc(-n2c(=O)cc(C)c3cnc(Nc4ccc(N5CCN(CCCCCCCCNC(=O)CC67CC8CC(CC(C8)C6)C7)CC5)cc4OC)nc32)c1	64.8
COc1cc(N2CCN(CCCCCCCCNC(=O)C3C[C@H]4CC[C@@H]3C4)CC2)ccc1Nc1ncc2c(C)cc(=O)n(-c3cccc(NC(=O)C4CC4)c3)c2n1 (stereo partly drawn)	31.5
C=CC(=O)Nc1cccc(-n2c(=O)cc(C)c3cnc(Nc4ccc(N5CCN(CCCCCCCCCCCCNC(=O)CC67CC8CC(CC(C8)C6)C7)CC5)cc4OC)nc32)c1	29.9
COc1cc(N2CCN(CCCCCCCCCCCCNC(=O)CC34CC5CC(CC(C5)C3)C4)CC2)ccc1Nc1ncc2c(C)cc(=O)n(-c3cccc(NC(=O)C(C)C)c3)c2n1	25.3
COc1cc(N2CCN(CCCCCCCCNC(=O)C[C@]34CC5C[C@@](C)(C[C@@](C)(C5)C3)C4)CC2)ccc1Nc1ncc2c(C)cc(=O)n(-c3cccc(NC(=O)C4CC4)c3)c2n1	24.7
COc1cc(N2CCN(CCCCCCCCCCCCNC(=O)CC34CC5CC(CC(C5)C3)C4)CC2)ccc1Nc1ncc2c(C)cc(=O)n(-c3cccc(NC(=O)C(C)(C)C)c3)c2n1	0
COc1cc(OCCOCCCCCCCCCCCCOCCC23CC4CC(CC(C4)C2)C3)ccc1Nc1ncc2c(C)cc(=O)n(-c3cccc(NC(=O)C4CC4)c3)c2n1	0
COc1cc(N2CCN(CCCCCCCCNC(=O)C3CC3)CC2)ccc1Nc1ncc2c(C)cc(=O)n(-c3cccc(NC(=O)C4CC4)c3)c2n1	15.1
COc1cc(N2CCN(CCCCCCCCNC(=O)C3C[C@H]4C=C[C@@H]3C4)CC2)ccc1Nc1ncc2c(C)cc(=O)n(-c3cccc(NC(=O)C4CC4)c3)c2n1 (stereo partly drawn)	0

* * *

Quick reference for IC50 among some molecules
Test system: Bel-7402
procedure.text: CCK-8 tumor cell proliferation, Bel-7402
Format: cell-based
assay.conditions: Homo sapiens, Bel-7402 cells, 72 hours
attribute.measured: IC50

                                   molecule  value_reported
0  COc1cc(N2CCN(CCCCCCCCCCCCNC(=O)CC34CC5CC(CC(C5)C3)C4)CC2)ccc1Nc1ncc2c(C)cc(=O)n(-c3cccc(NC(=O)C4CC4)c3)c2n1 [ZX-HYT-11]         > 10 µM
1  COc1cc(N2CCN(CCCCNC(=O)CC34CC5CC(CC(C5)C3)C4)CC2)ccc1Nc1ncc2c(C)cc(=O)n(-c3cccc(NC(=O)C4CC4)c3)c2n1 [ZX-HYT-52]        0.568 µM
2  COc1cc(N2CCN(C(=O)NC34CC5CC(CC(C5)C3)C4)CC2)ccc1Nc1ncc2c(C)cc(=O)n(-c3cccc(NC(=O)C4CC4)c3)c2n1 [ZX-HYT-64]         0.37 µM
